In this section, each of the compounds is paired with its reported Population Apoptotic (%).
test system: U2OS; assay: Multiplex assay against U2OS; assay type: toxicity, cell-based; settings: human, 12 h, 1 µM, compound concentration 1 uM, replicate 2
Quick note: give the figure in %, leave out the unit.

Give Population Apoptotic (%) for O=C(NCC(=O)N1CC[C@H](N[C@H]2CC[C@@](O)(c3ccc(-c4ncccn4)cn3)CC2)C1)c1cccc(C(F)(F)F)c1 tested on U2OS. 93

Please respond with reported Population Apoptotic (%) (system U2OS) for O=C(O)Cc1ccccc1Nc1c(Cl)cccc1Cl . 84

Consider the compound CSc1ccccc1N1CCN(CCCCCC(=O)NC2CCCc3ccccc32)CC1.Cl (centres undefined) tested on U2OS; state its Population Apoptotic (%). 36

Under U2OS, report Population Apoptotic (%) for CN1CCN2c3ncccc3Cc3ccccc3C2C1 (centres undefined) 100

Provide the reported Population Apoptotic (%) (system: U2OS) for CC1(COc2ccc3c(c2)ncn3-c2ccc3cccc(N4CCC(N)CC4)c3n2)COC1 25

Provide Population Apoptotic (%), tested on U2OS, for Cc1ccc(F)cc1C(=O)Nc1ccc(C(=O)N2Cc3cccn3Cc3ccccc32)c(Cl)c1 . 84

Given CN1CCN(c2nc3cc(C(F)(F)F)ccc3n3cccc23)CC1.O=C(O)/C=C\C(=O)O.O=C(O)/C=C\C(=O)O , report its Population Apoptotic (%) on U2OS. 100

Report measured Population Apoptotic (%) on U2OS; entry: Cl.Clc1ccc2nsnc2c1NC1=NCCN1 [TIZANIDINE HYDROCHLORIDE] 85

Given COc1cc(C(=O)N(CCCc2ccccc2)Cc2ccc(CC(=O)O)cc2)cc(OC)c1C , report its Population Apoptotic (%) on U2OS. 70
